test: S16 Schwann cell PMP22 intronic element firefly luciferase assay (AID 624032); details: S16 rat Schwann cells, PMP22 element FLuc, 24 h; series mostly up to 57.5 µM; also: nearly all actives have a fitted effect of over 30% in size
Results filed as inconclusive are left out. Active and inactive are the calls of the source. Calls follow the shape of the dose curve; as a rule, active = well fitted inhibition curve with a large enough effect; inconclusive = small, poorly fitted or top-dose-only effect; inactive = no such curve, though single readings can be large or run the other way.
Classes to choose from: TRUE for active, FALSE for inactive

-- ask Just curious, what result did C[C@H]1OC(OC2C(O)[C@@H](O)C(OC3C(O)[C@@H](O)C(O)O[C@@H]3CO)O[C@@H]2CO)[C@H](O)C(O)C1N[C@H]1C=C(CO)[C@@H](O)[C@H](O)C1O (some centres undefined) get here?
-- reply FALSE

-- ask Just curious, what result did CC1(C(=O)O)CCC2(C)CCC3(C)C(=CC(=O)C4C5(C)CCC(O)C(C)(C)C5CCC43C)C2C1 (centres undefined) get here?
-- reply FALSE

-- ask Just curious, what result did O=c1[nH]c(=O)n(C2C[C@H](O)[C@@H](CO)O2)cc1C(F)(F)F (some centres undefined) get here?
-- reply TRUE

-- ask Just curious, what result did COC(c1ccccc1)(c1ccccc1)C(Oc1nc(C)cc(C)n1)C(=O)O (centres undefined) get here?
-- reply FALSE
